Sourced from patent US20230365571A1

target_or_system: Sppl2a CD74 (Mus musculus, UniProt Q9JJF9)
Construct: Mouse whole blood Balb/c mice (sodium citrate) was ordered by Bioreclamation LLC; tissue Bioreclamation LLC
Sequence (Q9JJF9 26-523): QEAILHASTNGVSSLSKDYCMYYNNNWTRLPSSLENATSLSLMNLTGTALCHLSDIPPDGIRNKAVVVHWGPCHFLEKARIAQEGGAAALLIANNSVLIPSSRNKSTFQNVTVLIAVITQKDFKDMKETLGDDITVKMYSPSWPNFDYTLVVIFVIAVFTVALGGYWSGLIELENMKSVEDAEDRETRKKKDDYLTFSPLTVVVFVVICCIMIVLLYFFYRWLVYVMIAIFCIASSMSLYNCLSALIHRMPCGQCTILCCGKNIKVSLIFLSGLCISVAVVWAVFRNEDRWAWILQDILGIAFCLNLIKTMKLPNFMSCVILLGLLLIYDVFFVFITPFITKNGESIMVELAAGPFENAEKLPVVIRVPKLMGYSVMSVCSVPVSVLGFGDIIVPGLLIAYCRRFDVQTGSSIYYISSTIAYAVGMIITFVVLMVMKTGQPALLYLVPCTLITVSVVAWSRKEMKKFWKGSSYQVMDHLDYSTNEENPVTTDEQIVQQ
experiment_notes: CD74/p8 mouse whole blood assay, flow cytometry format
details: Balb/c mouse whole blood, 5 h, CD74 signal on gated live B cells
assay_readout: IC50
Report the figure along with its unit, number first.

Per the records, this compound ( CCn1nc(-c2cc(C)no2)cc1NC(=O)C[C@@H](C)C(=O)N[C@@H]1C(=O)N2CCCN2Cc2ccccc21 [Example 101] ) has IC50 equal to 473 nM

Per the records, this compound ( Cc1nc(C(=O)NCC(F)F)sc1C(=O)NC[C@H](C(=O)N[C@@H]1C(=O)N2CCCN2Cc2ccccc21)C(F)(F)F [Example 5] ) has IC50 equal to 225 nM

Entry under test: CC(C)C(=O)Nc1cc(NC(=O)C[C@H](C(=O)N[C@@H]2C(=O)N3CC4(CC4)CN3C(=O)c3ccccc32)C2CCC2)n(C)n1 [Example 82] . Its IC50 was 1870 nM
